Reported half-life at 1 µM values are given for each entry in this list.
experiment_description: Plasma stability study, human
Assay type: in vitro ADME
condition: pooled plasma, 37 °C, read-out: Plasma Half-Life, t1/2
Give just the numeric value; h need not be written.

Look over these answered cases.
| molecule | half-life at 1 µM / h |
| --- | --- |
| CC(C)[N+](C)(CCOC(=O)C1c2ccccc2Oc2ccccc21)C(C)C [Propantheline, reference compound] | 0.12 |
| CCOC(=O)[C@H](CCc1ccccc1)N[C@@H](C)C(=O)N1CCC[C@H]1C(=O)O [Enalapril, reference compound] | 4.72 |

Okay, now this molecule:
IN: Please give the measured half-life at 1 µM for this molecule: "O=C(CCCCCCCn1cc(CCCF)nn1)N1[C@@H]2[C@H](O)[C@@H](O)[C@@H](O)[C@@H](CO)[C@@H]21"
OUT: 3.47
